Test system: Human papillomavirus type 1a E7 protein (residues 1-88)
Assay: HPV1a E7 small-molecule binders, primary screen, biochemical, small-molecule microarray, residues 1-88, 635 nm (AID 1129)
Settings: small-molecule microarray binding, fluorescence 635 nm; higher = more signal
Readout: composite z-score
Answer as a number with no unit attached.

Example results:
1. [N-]=[N+]=Nc1ccccc1[C@H]1OC(c2ccc(OCCCO)cc2)=N[C@@]1(CCS(=O)(=O)c1ccccc1)C(=O)NCc1ccccc1 = 1.24
2. OCC1C=C(/C=C/c2ccccc2)CN1Cc1ccccc1Br (stereo not drawn) = 0.278
3. CO[C@H]1O[C@H](CO)[C@@H](OC(=O)Nc2ccc(Br)cc2)[C@@H]2OC(=O)[C@H](Cc3cccc(Br)c3)C/C=C/C[C@@H](Cc3cccc(Br)c3)C(=O)O[C@@H]12 = -0.122
4. COC(=O)[C@@]1(Cc2ccccc2)[C@H]2c3cc(C(=O)N4CCCC4)n(Cc4ccc(O)c(OC)c4)c3C[C@H]2CN1C(=O)c1ccccc1 = 1.27
5. CC(C)NC(=O)[C@@H]1c2ccccc2C(=O)N(C(C)C)[C@H]1c1ccc(CO)cc1 = -0.0425

Request: # input molecule: COCCCNC(=O)[C@@H]1c2ccccc2C(=O)N(Cc2ccccc2OC)[C@H]1c1ccc(CO)cc1 ; wanted: its composite z-score
Response: 0.133

Request: # input molecule: O=C(NC1CC1)[C@@H]1c2ccccc2C(=O)N(Cc2cc(F)cc(C(F)(F)F)c2)[C@H]1c1ccc(CO)cc1 ; wanted: its composite z-score
Response: -0.454

Request: # input molecule: CC(c1ccccc1)C(O)C1C=CC2C(=O)N(C)C(=O)C2N1NC(=O)OC(C)(C)C (stereo not drawn) ; wanted: its composite z-score
Response: 1.21

* * *

Listed here: items and their measured composite z-score.
Tested on: XIP peptide (Xip251-270)
Assay: compounds binding XIP fragment 251-270 – biochemical, small-molecule microarray, fluorescence 635/667 nm, 0.5 µg/mL protein, primary screen (AID 1183)
Settings: fluorescence 635 nm, higher = more signal
Answer as a number with no unit attached.

Example results:
1) CS(=O)(=O)CCOC(=O)C1=CC(CCCO)=CC(C2CC2)N(Cc2cc3c(cc2Br)OCO3)C=C1C(=O)OCCS(C)(=O)=O (stereo not given) = -0.111
2) CCCCC(=C=CC[C@@H](O)c1ccc(CO)o1)CCO = 0.218
3) O=C(CS)NCCCCCNC(=O)[C@H]1C[C@H]2C(=O)NCC(=O)N2[C@H]1c1ccc(O)cc1 = 0.149
4) CC(C)[Si](C#C[Si](C(C)C)(C(C)C)C(C)C)(O[C@H](C)c1cn(Cc2ccccc2)nn1)C(C)C = 0.0972
5) C=CC[C@@]1(C(=O)N2CCCCC2)N=C(c2ccc(OCCCO)cc2)O[C@@H]1c1ccccc1N=[N+]=[N-] = 0.602

Request: # input molecule: C=C[C@H](C)[C@@H](OC(=O)Nc1ccc(SC)cc1)c1ccc(O)c2ccccc12 ; wanted: its composite z-score
Response: 0.248

Request: # input molecule: O=C(NC1CC1)[C@@H]1c2ccccc2C(=O)N(C2Cc3ccccc3C2)[C@H]1c1ccc(CO)cc1 ; wanted: its composite z-score
Response: 0.657

Request: # input molecule: CCCC=C(CCC)[C@@H](NS(=O)(=O)c1ccc(Cl)cc1)c1ccc(C(=O)OC)cc1 ; wanted: its composite z-score
Response: 0.536

Request: # input molecule: COCCOC(=O)N1C(=O)[C@@]2(c3cc(C#CCCO)ccc31)[C@H](c1ccc(OCCO)cc1)N1[C@H](c3ccccc3)[C@H](c3ccccc3)OC(=O)[C@H]1[C@@H]2C(N)=O ; wanted: its composite z-score
Response: 0.779

* * *

Test: growth of efflux-deficient E. coli DRC39 – strain DRC39, OD650, 48 h, E. coli filamentation inducers, primary screen (AID 1179);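 note: screen aims at cell division blockers that make cells filament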
Details: E. coli DRC39 delta-acrAB growth, higher = more signal, called active from +8 up or from −8 down
Active and inactive are the calls of the source.
Listed here: items and their measured z-score.

1) COCCOC(=O)N1C(=O)[C@@]2(c3cc(C#CCCO)ccc31)[C@H](c1ccc(O)cc1)N1[C@H](c3ccccc3)[C@H](c3ccccc3)OC(=O)[C@H]1[C@@H]2C(=O)N1CCN(c2ncccn2)CC1 = -0.62 (inactive)
2) CCOC(=O)[C@H]1C/C=C/C[C@H](C(=O)OCC)C(=O)O[C@H]2[C@@H](OC)O[C@H](CO)[C@@H](OC(=O)c3ccc(Br)cc3)[C@@H]2OC1=O = 0.485 (inactive)

Request: # input compound: O=C(O)[C@H]1C[C@H]2C(=O)N3CCC[C@H]3C(=O)N2[C@H]1c1ccc(O)cc1 ; wanted: its z-score
Response: 0.715 (inactive)

* * *

System: Lefty1
Assay: Lefty1 protein binding to printed compounds – biochemical, small-molecule microarray, 635/667 nm fluorescence, primary screen (AID 1139)
Settings: fluorescence 635/667, higher = more signal
Readout: composite z-score
Answer as a number with no unit attached.

Example results:
1. C=C(CCCC)/C(=C/C[C@H](OC(C)=O)c1ccc(OCCO)cc1)c1cnc2ccccc2c1 = 1.15
2. C=C(/C(=C/C[C@H](OC(C)=O)c1ccc(OCCO)cc1)c1cc(C(=O)OC)ccc1OC)C(C)C = 1.55
3. O=C(O)[C@H]1C[C@H]2C(=O)N3CCC[C@H]3C(=O)N2[C@H]1c1ccc(O)cc1 = -0.801
4. CC(=CC1CCCCC1)[C@@H](NC(=O)c1cccnc1)c1ccc(-c2ccccc2)cc1 = -0.496

Here's the next entry for you.
Request: Reported composite z-score for Lefty1, given CC(=O)NCCCC[C@@H]1NC(=O)[C@H]2C[C@@H](C(=O)O)[C@@H](c3ccc(O)cc3)N2C1=O ?
Response: 1.45

* * *

Test: JC-1 mitochondrial potential readout, lung cancer cells – cell-based, A549, JC-1 fluorescence, basal, 24 h, 100 nL, profiling panel (AID 1138);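 note: A549 lung adenocarcinoma cells under basal conditions with no added stimulus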
Settings: higher = more signal
Readout: z-score

Example results:
1) O=C(CS)NCCCCCNC(=O)[C@H]1C[C@H]2C(=O)NCC(=O)N2[C@H]1c1ccc(O)cc1 = -0.0966
2) COC(=O)c1c2oc(c1C(=O)OC)C(=O)N[C@@H](C(C)C)Cn1cc(nn1)C1(CCCCC1)NC(=O)N[C@H](CO)CC2 = 2.2
3) [N-]=[N+]=Nc1ccccc1C[C@]1(C(=O)NCC(O)CO)N=C(c2ccc(OCCCO)cc2)O[C@H]1c1ccccc1 (stereo not given in full) = 0.0609

Request: # input molecule: O=C(CS)NCCCCCNC(=O)[C@@H]1C[C@@H]2C(=O)NCC(=O)N2[C@@H]1c1cccc(OCCO)c1 ; wanted: its z-score
Response: 1.12

Request: # input molecule: CC(C)(C)OC(=O)CC[C@]1(C(N)=O)N=C(c2ccc(OCCCO)cc2)O[C@H]1c1ccccc1 ; wanted: its z-score
Response: 1.04

Request: # input molecule: C=CCN(Cc1ccccc1)C(=O)C(c1cccs1)N(C(=O)/C=C\C(=O)O)c1ccc(CCOCCO)cc1 (stereo not given) ; wanted: its z-score
Response: 1.37

Request: # input molecule: O=C1NC(=O)C2C1C=CC(C(O)c1ccc(I)cc1)N2Nc1ccc(Cl)cc1Cl (stereo not given) ; wanted: its z-score
Response: 0.535

Request: # input molecule: CO[C@H]1O[C@H](CO)[C@@H](OC(=O)Nc2ccccc2)[C@@H]2OC(=O)[C@@H](Cc3ccc4ccccc4c3)C/C=C/C[C@H](Cc3ccc4ccccc4c3)C(=O)O[C@@H]12 ; wanted: its z-score
Response: 0.461

Request: # input molecule: COc1ccc([Si](C)(C)[C@@H]2[C@@H](CCn3cc(CCO)nn3)O[C@]3(C(=O)N(Cc4cccc(N5C(=O)c6cccc7cccc5c67)c4)c4ccccc43)[C@H]2C)cc1 ; wanted: its z-score
Response: -1.1

Request: # input molecule: C#CCN1[C@@H](Cc2ccc(O)cc2)C(=O)O[C@H](Cc2ccccc2)[C@@H]1/C=C/C1CC1 ; wanted: its z-score
Response: -1.76

Request: # input molecule: C=CCNC(=O)[C@@H]1[C@H]2C(=O)O[C@H](c3ccccc3)[C@H](c3ccccc3)N2[C@H](c2ccc(OCCO)cc2)[C@@]12C(=O)N(C(=O)OCCOC)c1ccc(C#CCNC(N)=O)cc12 ; wanted: its z-score
Response: -0.746

Request: # input molecule: COc1ccc([Si](C)(C)[C@H]2[C@H](CC(=O)N3CCC[C@H]3CO)O[C@@]3(C(=O)N(Cc4cccc(N5CCOC5=O)c4)c4ccccc43)[C@@H]2C)cc1 ; wanted: its z-score
Response: 1.1

Request: # input molecule: O=C1N(CCS(=O)(=O)c2ccccc2)c2ccccc2[C@@H]2OC(c3ccc(OCCCO)cc3)=N[C@]12Cc1ccccc1 ; wanted: its z-score
Response: 2.29

Request: # input molecule: O=C1C[C@@](C(=O)NCc2ccccc2)(c2ccc([N+](=O)[O-])cc2)[C@@H](c2ccc(CO)cc2)N1CC12CC3CC(CC(C3)C1)C2 ; wanted: its z-score
Response: 1.44

Request: # input molecule: Cc1ccc(S[C@]2(C(=O)O)CC(=O)N(C(C)C)[C@@H]2c2ccc(CO)cc2)cc1 ; wanted: its z-score
Response: -0.233
